# Tested on: HT29 colon
# TEST_METHOD_NOTES: NCI-60 one-dose screen, 48 h (100 = growth as untreated, 0 = no growth, -100 = all killed)
# TEST_SETTINGS: 10 µM unless noted
The panel holds about 83,000 compounds, 20% with a hit somewhere; the sample as a whole holds those more often.
MEASURED_ATTRIBUTE: growth (%)
Expressed in %, but write only the number.

[Q] What reported growth corresponds to O=S(=O)(Nc1nccs1)c1ccc(Nc2nc(-c3ccncc3)cs2)cc1 on HT29 colon?
[A] 120

[Q] Try this compound too: O=C1C(Cl)=C(NCCCN(CCCNC2=C(Cl)C(=O)c3ccccc3C2=O)C2=C(Cl)C(=O)c3ccccc3C2=O)C(=O)c2ccccc21
[A] 12.4

[Q] Also CC[C@]12C=CCN3CC[C@@]4(c5ccc(OC)cc5N(C)[C@H]4[C@@](O)(C(=O)OC)[C@@H]1OC(=O)CCC(=O)O[C@H]1CC[C@H]4[C@@H]5CC[C@H]6CC(=O)CC[C@]6(C)[C@H]5CC[C@]14C)[C@@H]32 ?
[A] -2.17

[Q] For O=C(CCCC(=O)Nc1ccc(-n2nnc3cc(Cl)c(Cl)cc32)cc1)Nc1ccc(-n2nnc3cc(Cl)c(Cl)cc32)cc1 then?
[A] 43.8

[Q] Same thing, different compound: C#CCN1C(=O)c2ccccc2N(CC#C)C12CCN(Cc1cn(CC(=O)Nc3ccccc3C(N)=O)nn1)CC2
[A] 85.1

[Q] What would you report for O=C(Nc1ccc2ncnc(Nc3cccc(C(F)(F)F)c3)c2c1)c1cccs1 ?
[A] 18

[Q] Follow-up item: COc1ccc2nc(-c3ccc(Cl)cc3)cc(C(=O)N3N=C(c4ccc(N)cc4)CC3c3ccccc3)c2c1 (centres undefined)
[A] 19.6

[Q] Also need COc1ccc2nc3nc4ccc[nH]c4cc3c2c1 , thanks.
[A] 97.7

[Q] Then what about the compound COc1cc(-c2csc(NC(=O)Nc3cc(Cl)cc(Cl)c3)n2)cc(OC)c1OC ?
[A] 21.9
